target: Melanocortin receptor 5 (Mus musculus); assay: In vitro agonist potency for Mouse Melanocortin 5 receptor
Sequence (P41149 whole entry): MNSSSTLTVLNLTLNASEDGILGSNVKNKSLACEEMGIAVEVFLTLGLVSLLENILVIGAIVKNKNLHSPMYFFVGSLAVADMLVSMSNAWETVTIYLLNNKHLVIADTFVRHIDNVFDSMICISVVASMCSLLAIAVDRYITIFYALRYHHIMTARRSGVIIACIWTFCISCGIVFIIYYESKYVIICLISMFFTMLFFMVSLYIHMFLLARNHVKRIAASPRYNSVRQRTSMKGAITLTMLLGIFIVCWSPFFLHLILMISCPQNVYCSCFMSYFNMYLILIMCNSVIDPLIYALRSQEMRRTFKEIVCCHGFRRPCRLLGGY
# label = Condition met if EC50 < 3 nM else Condition not met

Use these answered entries as a reference point.
smiles_representation=CCCCCCCCCCCCCC(=O)N[C@@H](Cc1c[nH]cn1)C(=O)N[C@H](Cc1ccccc1)C(=O)N[C@@H](CCCN=C(N)N)C(=O)N[C@@H](Cc1c[nH]c2ccccc12)C(N)=O test_system="Melanocortin receptor 5 (Mus musculus)" assigned_class="Condition not met"
smiles_representation=CCCCCCCCCC(=O)N[C@@H](Cc1c[nH]cn1)C(=O)N[C@H](Cc1ccccc1)C(=O)N[C@@H](CCCN=C(N)N)C(=O)N[C@@H](Cc1c[nH]c2ccccc12)C(N)=O test_system="Melanocortin receptor 5 (Mus musculus)" assigned_class="Condition not met"
smiles_representation=CCCCCCCCCCCCC(=O)N[C@@H](Cc1cnc[nH]1)C(=O)N[C@H](Cc1ccccc1)C(=O)N[C@@H](CCCNC(=N)N)C(=O)N[C@@H](Cc1c[nH]c2ccccc12)C(N)=O test_system="Melanocortin receptor 5 (Mus musculus)" assigned_class="Condition not met"
smiles_representation=N=C(N)NCCC[C@H](NC(=O)[C@@H](Cc1ccccc1)NC(=O)[C@@H](N)Cc1cnc[nH]1)C(=O)N[C@@H](Cc1c[nH]c2ccccc12)C(N)=O test_system="Melanocortin receptor 5 (Mus musculus)" assigned_class="Condition met"

Query: In plain terms, does `CCCCCCCCCCC(=O)N[C@@H](Cc1cnc[nH]1)C(=O)N[C@H](Cc1ccccc1)C(=O)N[C@@H](CCCNC(=N)N)C(=O)N[C@@H](Cc1c[nH]c2ccccc12)C(N)=O` come in under 3 nM for EC50?
Response: Condition not met

Query: In plain terms, does `CCCCCCCCCCCCCCCCC(=O)N[C@@H](Cc1c[nH]cn1)C(=O)N[C@H](Cc1ccccc1)C(=O)N[C@@H](CCCN=C(N)N)C(=O)N[C@@H](Cc1c[nH]c2ccccc12)C(N)=O` come in under 3 nM for EC50?
Response: Condition met

Query: In plain terms, does `CCCCCCCC(=O)N[C@@H](Cc1c[nH]cn1)C(=O)N[C@H](Cc1ccccc1)C(=O)N[C@@H](CCCN=C(N)N)C(=O)N[C@@H](Cc1c[nH]c2ccccc12)C(N)=O` come in under 3 nM for EC50?
Response: Condition met

Query: In plain terms, does `CCCCCCCCC(=O)N[C@@H](Cc1cnc[nH]1)C(=O)N[C@H](Cc1ccccc1)C(=O)N[C@@H](CCCNC(=N)N)C(=O)N[C@@H](Cc1c[nH]c2ccccc12)C(N)=O` come in under 3 nM for EC50?
Response: Condition met

---

target: Melanocortin receptor 3 (Mus musculus, UniProt P33033); assay: In vitro agonist potency for Mouse Melanocortin 3 receptor
Sequence (P33033 whole entry): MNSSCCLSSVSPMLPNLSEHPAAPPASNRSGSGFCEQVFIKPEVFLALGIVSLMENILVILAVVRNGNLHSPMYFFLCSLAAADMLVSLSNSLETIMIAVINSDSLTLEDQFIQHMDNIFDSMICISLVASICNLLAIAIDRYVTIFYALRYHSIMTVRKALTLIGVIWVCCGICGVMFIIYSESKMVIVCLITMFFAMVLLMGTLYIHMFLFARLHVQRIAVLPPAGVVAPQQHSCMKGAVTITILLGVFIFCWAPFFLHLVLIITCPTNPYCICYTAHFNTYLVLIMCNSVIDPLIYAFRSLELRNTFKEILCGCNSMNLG
pEC50: −log10 of the molar value.
Binary call on pEC50: y from 7 upward, n beneath that.

Use these answered entries as a reference point.
smiles_representation=CCCCCCCCCCCCCC(=O)N[C@@H](Cc1c[nH]cn1)C(=O)N[C@H](Cc1ccccc1)C(=O)N[C@@H](CCCN=C(N)N)C(=O)N[C@@H](Cc1c[nH]c2ccccc12)C(N)=O assigned_class=n
smiles_representation=N=C(N)NCCC[C@H](NC(=O)[C@@H](Cc1ccccc1)NC(=O)[C@@H](N)Cc1cnc[nH]1)C(=O)N[C@@H](Cc1c[nH]c2ccccc12)C(N)=O assigned_class=n
smiles_representation=CCCCCCCCC(=O)N[C@@H](Cc1cnc[nH]1)C(=O)N[C@H](Cc1ccccc1)C(=O)N[C@@H](CCCNC(=N)N)C(=O)N[C@@H](Cc1c[nH]c2ccccc12)C(N)=O assigned_class=y

Query: Given `CCCCCCCCCC(=O)N[C@@H](Cc1c[nH]cn1)C(=O)N[C@H](Cc1ccccc1)C(=O)N[C@@H](CCCN=C(N)N)C(=O)N[C@@H](Cc1c[nH]c2ccccc12)C(N)=O` , state whether its pEC50 is at least 7.
Response: y

Query: Given `CCCCCCCC(=O)N[C@@H](Cc1c[nH]cn1)C(=O)N[C@H](Cc1ccccc1)C(=O)N[C@@H](CCCN=C(N)N)C(=O)N[C@@H](Cc1c[nH]c2ccccc12)C(N)=O` , state whether its pEC50 is at least 7.
Response: y
